# credit: ChEMBL document CHEMBL1759888

So I've got a bunch of compounds here, and I need their logP values.
- protocolSummary: Lipophilicity, log P of the compound
- Format: physicochemical
- testSettings: octanol/water
Please give only the number in your answer, with no unit.

Reported logP ( COc1ccc(C(=O)c2c3n(c(=N)c4c(F)c(C#N)c(F)c(F)c24)CCN3)cc1 ) = 2.62

Consider Cc1ccc(C(=O)c2c3n(c(=N)c4c(F)c(C#N)c(F)c(Cl)c24)CCCN3)cc1 . Its measured logP is 3.85

The compound listed as COc1ccc(C(=O)c2c3n(c(=N)c4c(Cl)c(C#N)c(Cl)c(Cl)c24)CCN3)cc1 has a reported logP of 4.02

So, COc1ccc(C(=O)c2c3n(c(=N)c4c(Cl)c(C#N)c(Cl)c(Cl)c24)CCCN3)cc1 ? Its logP was 4.1

Recorded result, N#Cc1c(F)c(Cl)c2c(C(=O)c3ccccc3)c3n(c(=N)c2c1F)CCCN3 , logP: 3.35

----------
- System: HL-60
- protocolSummary: Anticancer activity against human HL60 cells after 48 hrs by MTT assay
- testSettings: HL-60, 48 h
Hi there, I'd appreciate the recorded IC50 for every entry that follows.
Return type: number; implicit unit mg/L.

The molecule listed as COc1ccc(C(=O)c2c3n(c(=N)c4c(F)c(C#N)c(F)c(F)c24)CCN3)cc1 has a reported IC50 of 0.5

Field IC50 (entry CCOC(=O)c1c2n(c(=N)c3c(F)c(C#N)c(F)c(F)c13)CCN2 ) reads 0.02

Recorded result, COc1ccc(C(=O)c2c3n(c(=N)c4c(F)c(C#N)c(F)c(Cl)c24)CCO3)cc1 , IC50: 1

// IC50 lookup, molecule = CC(=O)c1c2n(c(=N)c3c(F)c(C#N)c(F)c(Cl)c13)CCN2 , result: 0.9

Reported IC50 ( N#Cc1c(F)c(F)c2c(C(=O)c3ccccc3)c3n(c(=N)c2c1F)CCCN3 ) = 0.3

What the record says about N#Cc1c(F)c(F)c2c(C(=O)c3ccc(Cl)cc3)c3n(c(=N)c2c1F)CCN3 : IC50 is 0.5

Query COc1ccc(C(=O)c2c3n(c(=N)c4c(F)c(C#N)c(F)c(Cl)c24)CCN3)cc1 yields IC50 of 0.2

So for CC(=O)c1c2n(c(=N)c3c(Cl)c(C#N)c(Cl)c(Cl)c13)CCN2 , the logged IC50 turned out to be 4.7

// sample N#Cc1c(Cl)c(Cl)c2c(C(=O)c3ccccc3)c3n(c(=N)c2c1Cl)CCO3 , its IC50 was 6

Short answer for N#Cc1c(F)c(Cl)c2c(C(=O)c3ccc(Cl)cc3)c3n(c(=N)c2c1F)CCN3 : IC50 was 0.3

response.value for N#Cc1c(F)c(F)c2c(C(=O)c3ccc(Cl)cc3)c3n(c(=N)c2c1F)CCCN3 (field: IC50) = 4.7

Field IC50 (entry COc1ccc(C(=O)c2c3n(c(=N)c4c(F)c(C#N)c(F)c(F)c24)CCO3)cc1 ) reads 0.1

Measured IC50 of COc1ccc(C(=O)c2c3n(c(=N)c4c(Cl)c(C#N)c(Cl)c(Cl)c24)CCN3)cc1 : 0.3

----------
Kindly supply the reported IC50 values for the records listed here.
- Test system: HepG2
- protocolSummary: Anticancer activity against human HepG2 cells after 72 hrs by MTT assay
- testSettings: HepG2, 72 h
Remember to quote the unit after the number.

The reported IC50 of the molecule N#Cc1c(F)c(Cl)c2c(C(=O)c3ccc(Cl)cc3)c3n(c(=N)c2c1F)CCCN3 was 2.1 µg/mL

Data point: N#Cc1c(F)c(F)c2c(C(=O)c3ccc(Cl)cc3)c3n(c(=N)c2c1F)CCCN3 ; IC50 = 8.4 µg/mL

Field IC50 (entry COc1ccc(C(=O)c2c3n(c(=N)c4c(Cl)c(C#N)c(Cl)c(Cl)c24)CCN3)cc1 ) reads 11.3 µg/mL

Form field IC50, entry N#Cc1c(F)c(F)c2c(C(=O)c3ccccc3)c3n(c(=N)c2c1F)CCCN3 : 1.1 µg/mL

----------
What IC50 was measured for each of the following?
- Tested on: HL-60
- protocolSummary: Anticancer activity against human HL60 cells after 48 hrs by MTT assay
- testSettings: HL-60, 48 h
The reply should contain only the number, in µg/mL.

response.value for CC(=O)c1c2n(c(=N)c3c(F)c(C#N)c(F)c(F)c13)CCN2 (field: IC50) = 0.02

So for N#Cc1c(Cl)c(Cl)c2c(C(=O)c3ccccc3)c3n(c(=N)c2c1Cl)CCCN3 , the logged IC50 turned out to be 10.7

Summary for this molecule, CCOC(=O)c1c2n(c(=N)c3c(Cl)c(C#N)c(Cl)c(Cl)c13)CCN2 : IC50 is 1.7

According to the records, this molecule N#Cc1c(F)c(Cl)c2c(C(=O)c3ccc(Cl)cc3)c3n(c(=N)c2c1F)CCCN3 displays IC50 of 0.2

// sample COc1ccc(C(=O)c2c3n(c(=N)c4c(Cl)c(C#N)c(Cl)c(Cl)c24)CCO3)cc1 , its IC50 was 24.2

// field: IC50; key: COc1ccc(C(=O)c2c3n(c(=N)c4c(Cl)c(C#N)c(Cl)c(Cl)c24)CCCN3)cc1 ; value = 4.4

Looking up Cc1ccc(C(=O)c2c3n(c(=N)c4c(Cl)c(C#N)c(Cl)c(Cl)c24)CCCN3)cc1 , I see its IC50 listed as 58.2

For N#Cc1c(F)c(F)c2c(C(=O)c3ccccc3)c3n(c(=N)c2c1F)CCO3 the molecule record lists IC50 as 0.008

The molecule listed as COc1ccc(C(=O)c2c3n(c(=N)c4c(F)c(C#N)c(F)c(Cl)c24)CCCN3)cc1 has a reported IC50 of 0.5

Lab note: COc1ccc(C(=O)c2c3n(c(=N)c4c(F)c(C#N)c(F)c(F)c24)CCCN3)cc1 gave IC50 of 0.02

Recorded result, N#Cc1c(Cl)c(Cl)c2c(C(=O)c3ccccc3)c3n(c(=N)c2c1Cl)CCN3 , IC50: 0.8

The reported IC50 of the molecule N#Cc1c(Cl)c(Cl)c2c(C(=O)c3ccc(Cl)cc3)c3n(c(=N)c2c1Cl)CCN3 was 2.6

response.value for N#Cc1c(F)c(Cl)c2c(C(=O)c3ccccc3)c3n(c(=N)c2c1F)CCCN3 (field: IC50) = 0.01

Per the record, N#Cc1c(Cl)c(Cl)c2c(C(=O)c3ccc(Cl)cc3)c3n(c(=N)c2c1Cl)CCCN3 has IC50 of 4.4

Value of IC50 reported for the molecule N#Cc1c(F)c(Cl)c2c(C(=O)c3ccccc3)c3n(c(=N)c2c1F)CCO3 is 1.5

The reported IC50 of the molecule Cc1ccc(C(=O)c2c3n(c(=N)c4c(F)c(C#N)c(F)c(Cl)c24)CCCN3)cc1 was 14.6

Value of measured IC50 for the entry CCOC(=O)c1c2n(c(=N)c3c(F)c(C#N)c(F)c(Cl)c13)CCN2 : 0.003

The measured IC50 associated with N#Cc1c(F)c(Cl)c2c(C(=O)c3ccccc3)c3n(c(=N)c2c1F)CCN3 reads 0.1

Cc1ccc(C(=O)c2c3n(c(=N)c4c(F)c(C#N)c(F)c(F)c24)CCCN3)cc1 has a reported IC50 of 4.7

Lookup result for N#Cc1c(F)c(F)c2c(C(=O)c3ccccc3)c3n(c(=N)c2c1F)CCN3 ; measured IC50: 0.001

----------
- protocolSummary: Lipophilicity, log P of the compound
- Assay type: physicochemical
- testSettings: octanol/water
measuredProperty: logP
Answer with a number only.

The compound listed as COc1ccc(C(=O)c2c3n(c(=N)c4c(F)c(C#N)c(F)c(Cl)c24)CCN3)cc1 shows logP equal to 3.26

Entry N#Cc1c(Cl)c(Cl)c2c(C(=O)c3ccc(Cl)cc3)c3n(c(=N)c2c1Cl)CCN3 ; logP = 4.76

compound CCOC(=O)c1c2n(c(=N)c3c(F)c(C#N)c(F)c(F)c13)CCN2 , logP observed: 2.04

The value of logP measured for the compound N#Cc1c(F)c(F)c2c(C(=O)c3ccccc3)c3n(c(=N)c2c1F)CCO3 turned out to be 2.57

Entry N#Cc1c(F)c(F)c2c(C(=O)c3ccccc3)c3n(c(=N)c2c1F)CCCN3 — recorded logP = 2.71

The reported value for Cc1ccc(C(=O)c2c3n(c(=N)c4c(Cl)c(C#N)c(Cl)c(Cl)c24)CCCN3)cc1 in terms of logP is 4.61

Noted for N#Cc1c(F)c(Cl)c2c(C(=O)c3ccc(Cl)cc3)c3n(c(=N)c2c1F)CCN3 : its logP reads 4

Noted for N#Cc1c(Cl)c(Cl)c2c(C(=O)c3ccccc3)c3n(c(=N)c2c1Cl)CCCN3 : its logP reads 4.11

logP measured on N#Cc1c(F)c(F)c2c(C(=O)c3ccc(Cl)cc3)c3n(c(=N)c2c1F)CCCN3 = 3.44
